Below, each entry is listed alongside its reported Residual PARP-1 activity.
# TESTED_ON: Human recombinant poly(ADP-ribose)-polymerase 1 (Homo sapiens, UniProt P09874)
# Construct: made in house
# Sequence (P09874 whole entry): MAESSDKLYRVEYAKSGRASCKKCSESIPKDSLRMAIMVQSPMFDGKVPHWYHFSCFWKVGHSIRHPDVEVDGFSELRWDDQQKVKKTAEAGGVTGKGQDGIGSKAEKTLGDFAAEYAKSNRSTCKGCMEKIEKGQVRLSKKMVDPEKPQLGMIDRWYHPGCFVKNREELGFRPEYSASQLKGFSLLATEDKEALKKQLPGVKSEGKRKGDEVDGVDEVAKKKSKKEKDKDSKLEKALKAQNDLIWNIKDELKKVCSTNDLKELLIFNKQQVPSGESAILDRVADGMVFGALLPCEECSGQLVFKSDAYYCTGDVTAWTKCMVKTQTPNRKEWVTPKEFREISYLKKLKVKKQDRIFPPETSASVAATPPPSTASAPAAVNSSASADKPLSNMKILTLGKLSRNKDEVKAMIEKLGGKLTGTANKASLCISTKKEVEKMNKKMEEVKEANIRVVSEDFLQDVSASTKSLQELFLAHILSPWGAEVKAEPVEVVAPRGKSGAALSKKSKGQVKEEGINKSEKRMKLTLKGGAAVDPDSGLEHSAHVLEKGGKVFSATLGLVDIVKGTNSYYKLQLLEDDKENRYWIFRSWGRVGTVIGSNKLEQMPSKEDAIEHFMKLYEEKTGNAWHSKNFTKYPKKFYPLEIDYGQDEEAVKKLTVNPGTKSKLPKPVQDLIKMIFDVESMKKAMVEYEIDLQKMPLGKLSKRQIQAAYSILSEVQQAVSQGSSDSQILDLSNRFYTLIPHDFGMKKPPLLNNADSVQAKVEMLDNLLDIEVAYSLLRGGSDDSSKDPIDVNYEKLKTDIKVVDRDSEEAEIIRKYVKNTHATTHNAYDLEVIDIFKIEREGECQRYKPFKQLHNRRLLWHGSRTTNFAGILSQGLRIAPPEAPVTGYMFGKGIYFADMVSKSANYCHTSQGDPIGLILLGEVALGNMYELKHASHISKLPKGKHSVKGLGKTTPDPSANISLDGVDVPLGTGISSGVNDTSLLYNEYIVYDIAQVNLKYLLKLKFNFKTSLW
# PROTOCOL_TEXT: autopoly(ADP-ribosyl)ation of PARP-1, [32P]NAD+ incorporation
# Type: biochemical
# APPLIED_CONDITIONS: in the presence of 1 mM compound
# Procedure: The oligonucleotides were purchased from Biosset (Novosibirsk, Russia). […] The reaction of autopoly(ADP-ribosyl)ation was carried out as follows: for PARP-1 50 mM tris-HCl, pH 8.0, 20 mM MgCl2, 150 mM NaCl, and 7 mM β-mercaptoethanol, activated DNA 2 OE/mL, 0.3 mM [^32P] […] IC50 values were calculated using the Origin Pro 8.0 software by nonlinear regression analysis.

// known answers, use as guide
MOLECULE	RESULT_VALUE
Nc1ccn([C@@H]2O[C@H](CO)[C@@H](O)[C@H]2O)c(=O)n1 [Cyd, reference compound]	81% ± 16%
Nc1nc2c(ncn2[C@@H]2O[C@H](CO)[C@@H](O)[C@H]2O)c(=O)[nH]1 [Guo, reference compound]	60% ± 13%
Nc1ncnc2c1ncn2[C@@H]1O[C@H](CO)[C@@H](O)[C@H]1O [Ado, reference compound]	77% ± 21%

Query molecule follows.
Enquiry: Sample O=c1[nH]c(=O)n([C@@H]2O[C@H](CO)[C@@H](O)[C@H]2O)cc1Cl [Compound 5-Cl-Urd, 5-Cl-uridine, reference compound] — what was its Residual PARP-1 activity?
Return: 82% ±17%
